Consider the following molecules; for each one, report its TGI.
- Tested on: SN12C renal
- ASSAY METHOD TEXT: NCI tumour cell line growth inhibition, 48 h
One number for each entry, in µM.

Some solved entries appear below for comparison.
Recorded result, O=C(O)CCCCCNC(=O)CCC(CN(CC(=O)OCc1ccccc1)CC(=O)OCc1ccccc1)N(CC(=O)OCc1ccccc1)CC(=O)OCc1ccccc1 (stereo not given) , TGI: 36.2

Query Cc1ccc(S(=O)(=O)NC(CCCCN)C(=O)CCl)cc1 (stereo not given) yields TGI of 77.2

So for COc1cccc2c(NNc3ccc(Cl)cc3)c3ccc([N+](=O)[O-])cc3nc12 , the logged TGI turned out to be 75.3

Continuing:
Entry CCOC(=O)C(Cc1ccc(N(CCCl)CCCl)cc1)NC(=O)C(CC(C)C)NC(C)=O (stereo not given) ; TGI = 10.9

---

For each record, write down the corresponding TGI.
- Tested on: SR leukemia
- ASSAY METHOD TEXT: NCI tumour cell line growth inhibition, 48 h

Answered cases to consult:
For reference, reported TGI for C=CCn1c(=O)c(-c2ccccc2)c(O)c2ccccc21 stands at > 100 µM

Short answer for COc1ccc(N=Nc2ccc3oc(=O)c(C(=O)Nc4ccc(OC)cc4)cc3c2)cc1 : TGI was 87.5 µM

The molecule listed as C/C=C\C(C)=C/C(C)C(=O)CC(O)CC1CC(=O)NC(=O)C1 (stereo unspecified) has a reported TGI of > 63.1 µM

// for each molecule below, give its TGI
1. CCOC(=O)C1C(=O)C=C(c2cc(C)ccc2O)CC1c1cccc(Br)c1 (stereo unspecified)
2. O=C1C2=C(Nc3cc([N+](=O)[O-])ccc3N2)OC1c1c[nH]c2ccc(COc3ccccc3)cc12 (stereo unspecified)
3. CCN(CC)CCC(CNc1c2ccc(Cl)cc2nc2ccc(OC)cc12)c1ccccc1 (stereo unspecified)
4. CCOc1c(OC)cc(CNNc2nccs2)cc1OC
5. Cc1ccc(SCN2CCCCC2)cc1 (tested in a mixture with another compound)
6. COc1ccc(/C=N/NC(=O)c2ccccc2Nc2ccccc2C(=O)N/N=C/c2ccc(OC)c(OC)c2)cc1OC

A)
["25.4 µM", "> 100 µM", "1.18 µM", "> 100 µM", "25.6 µM", "> 100 µM"]

List the reported TGI of each molecule below.
1. Cc1ccc(-c2cn3c(nc4ccccc43)c(C)n2)cc1
2. Cc1ccc(-n2cc(-c3ccc(Cl)cc3)c3c(NNC(=S)NCc4ccccc4)ncnc32)cc1
3. N#CC1=C(N)Oc2c(ccc3ccccc23)C1c1ccccc1Cl (stereo unspecified)

A)
1. > 100 µM
2. 21.5 µM
3. 22.1 µM

Return reported TGI values for all items listed beneath this line.
1. COc1ccc(/C(C)=C(\c2ccc(Cl)cc2)c2ccc(OCCN3CCCCC3)cc2)cc1F
2. CN1CCN(c2nc3c(c(=O)n(C)c(=O)n3C)n2C)CC1
3. CCCC1C2=C(C(=O)OC2=O)C2C(CC)CC3=C(C(=O)OC3=O)C12 (stereo unspecified)

A)
1. > 16.7 µM
2. > 100 µM
3. > 100 µM

Fill in TGI for each of the 4 molecules listed.
1. CCOC(=O)c1ccccc1NC(c1ccccc1)c1ccc2cccnc2c1O (stereo unspecified)
2. O=S(=O)(CC#CCS(=O)(=O)c1ccccc1)c1ccccc1
3. CC(=O)OC12CCCCC1C1(CCCC1)NC2=O (stereo unspecified)
4. COC(=O)c1cc(CNCCc2c[nH]c3ccccc23)on1

A)
1: 10.3 µM; 2: > 100 µM; 3: > 100 µM; 4: > 100 µM

Batch request: TGI for each of the following molecules.
1. C[Si](C)(C)C1=C2C(=O)c3ccccc3C(=O)C2=C([Si](C)(C)C)[C@@H]2CCCC[C@H]12
2. COC(=O)C1CCC2(CC1)NC(=O)NC2=O (stereo unspecified)

A)
["> 100 µM", "> 100 µM"]

---

- Test system: RXF 393 renal
- ASSAY METHOD TEXT: NCI tumour cell line growth inhibition, 48 h
MEASURED QUANTITY: GI50

Data point: Cn1cc(C2=C(c3cn(CCCSC(=N)N)c4ccccc34)C(=O)NC2=O)c2ccccc21 ; GI50 = 1180 nM

Field GI50 (entry Cc1nc2cc(NC(=O)CN3CCN(CCN4C(=O)c5cccc6cccc(c56)C4=O)CC3)ccc2s1 ) reads 5460 nM

Documented GI50 of COc1ccc(/C=C2\CN(Cc3cn(CCCNc4ccnc5cc(Cl)ccc45)nn3)C/C(=C\c3ccc(OC)cc3)C2=O)cc1 : 5480 nM

So, CCCCc1ccc(C(N)=O)nc1 ? Its GI50 was > 100000 nM

Quick note, GI50 for Cc1cc2c(C#N)n3c(c2cc1C)C(=O)C(c1ccccc1)Oc1ccccc1-3 (centres undefined) landed at 2710 nM

Lab note: each molecule below needs its GI50 filled in.
1. CCN(CC)CCC(CNc1c2ccc(Cl)cc2nc2ccc(OC)cc12)c1ccccc1 (centres undefined)
2. Cn1cnc2nc(Cl)nc(Cl)c21

A)
["1230 nM", "2390 nM"]

Dear reader, for each entry below, please note its GI50.
1. C=C1C(=O)O[C@H]2[C@H]1CC/C(Cn1cc(CNC(=O)c3cc4ccccc4[nH]3)nn1)=C\CC[C@@]1(C)O[C@@H]21
2. Cc1cc(N2CCOCC2)nc(N(CCNc2ccnc3cc(Cl)ccc23)Cc2cccs2)n1

A)
1. 2160 nM
2. 1740 nM

---

- Tested on: HCT-116 colon
- ASSAY METHOD TEXT: NCI tumour cell line growth inhibition, 48 h
Threshold rule: TGI greater than or equal to 5 µM is 1; below that, 0.

Some solved cases for reference:
Q) Textbook exercise: given the entry Cc1c2cccc-2c(N(C)C)cc2c1[nH]c1ccccc12 , state whether its TGI is greater than or equal to 5 µM.
A) 1

Q) Confirm if TGI reported for the compound N#Cc1c(C#N)c(-c2ccco2)n(/N=C/c2ccco2)c1N is 5 µM or above.
A) 1

Q) Item Cc1ccc(S(=O)(=O)c2ccccn2)cc1 with TGI of 5 µM or above?
A) 1

Q) Reported TGI at or above 5 µM? CCOC(=O)C(Cc1ccc(N(CCCl)CCCl)cc1)NC(=O)C(CC(C)C)NC(C)=O (configuration not stated)
A) 0

Q) Given Cc1ccc(-c2cn3c(nc4ccccc43)c(C)n2)cc1 , state whether its TGI is at least 5 µM.
A) 1

---
Q) Assess whether reported TGI for O=C1N[C@@H](c2c[nH]c3ccc(Br)cc23)C(=O)N[C@H]1c1c[nH]c2ccc(Br)cc12 sits at 5 µM or higher.
A) 1

Q) Entry C#Cc1cccc(NC(=O)Nc2cccc(NC(=O)CCl)c2)c1 : is its TGI no less than 5 µM?
A) 1

Q) Does the reported TGI for O=C(c1ccccc1)c1cc(-c2ccccc2)c(-c2ccccc2)[nH]c(=O)c1=O fall at or above the 5 µM mark?
A) 1

Q) Check if TGI >= 5 µM (inclusive). Item: Cn1c([N+](=O)[O-])cnc1/C=C1\Oc2ccc(Cl)cc2C1=O
A) 0

Q) Given the entry O=C1/C(=C/c2ccc([N+](=O)[O-])s2)Oc2ccc(Cl)cc21 , answer whether its TGI meets or surpasses 5 µM.
A) 0

Q) Can CCOc1c(OC)cc(CNNc2nccs2)cc1OC be said to have TGI at or above 5 µM?
A) 1

---

- Tested on: 786-0 renal
- ASSAY METHOD TEXT: NCI tumour cell line growth inhibition, 48 h
Exercise: state measured TGI for each of the compounds provided.
Give bare numbers, in µM.

TGI measured on C=CC(C)(C)c1cc([C@@H]2COc3cc(O)ccc3C2=O)c(O)c(OC)c1OC = 31.9

For reference, reported TGI for CCO/C=N/C1=C(C#N)C(c2ccc(OC)c(OC)c2)c2c(-c3ccccc3)nn(-c3ccccc3)c2O1 (stereo not drawn) stands at 29.2

For this compound ( CCOC(=O)C1C(=O)C=C(c2cc(C)ccc2O)CC1c1cccc(Br)c1 (stereo not drawn) ), measured TGI is 39.8

For each listed entry, give its TGI.
1. COc1ccc2[nH]c3c(C)c4ccnc(NCCCN(C)CCCNC(=O)NCCCN(C)CCCNc5nccc6c(C)c7[nH]c8ccc(OC)cc8c7c(C)c56)c4c(C)c3c2c1
2. C[N+]12C=CC=C1C(N1CCCC1)c1sc(-c3ccc(Cl)cc3)cc12 (stereo not drawn)

A)
1: 1.2; 2: 28.8

Batch lookup, TGI per entry.
1. COc1cc2c(cc1Nc1nc(Nc3ccsc3C(N)=O)c3cc[nH]c3n1)N(C(=O)CN(C)C)CCC2
2. CC1CCCC2(O1)OC1CC(=O)OC1C1=C2C(=O)c2ccccc2C1=O (stereo not drawn)
3. Cc1cc(C)n(CN(Cn2nc(C)cc2C)c2ccc(N(Cn3nc(C)cc3C)Cn3nc(C)cc3C)cc2)n1
4. COc1ccc(/C=C2\CC(C)CC3C2=NN(C(C)=O)C3c2ccc(OC)c(OC)c2)cc1OC (stereo not drawn)
5. CCS(=O)(=O)Nc1ccc(Oc2ccc(F)cc2F)c(-c2cn(C)c(=O)c3[nH]ccc23)c1
6. COc1cc2c(cc1C)NC(=O)/C2=C/c1c(Cl)n(C)c2ccccc12

A)
1. 6.95
2. 3.85
3. 43.4
4. 27.4
5. 18.1
6. 30.7
